tested on: SK-MEL-5; test: NCI tumour cell line growth inhibition, 48 h
Active and inactive are the calls of the source. No stated cut-off is given here; in the data, active = GI50 up to about 1.1 µM and inactive = higher.
Labels: label 1 = active, label 0 = inactive

INSERT INTO results (compound, target_of_assay, assigned_label) VALUES
  ('COCc1nc2c(OC)c(-c3nc4ccc(N5CCN(C)CC5)nc4[nH]3)cc(OC)c2[nH]1', 'SK-MEL-5', 'label 0'),
  ('CCOC(=O)CCC(NC(=O)c1ccc(/N=C/c2nc3cc(C(F)(F)F)ccc3nc2-c2ccccc2)cc1)C(=O)OCC (stereo not drawn)', 'SK-MEL-5', 'label 0'),
  ('CC12CCC(C(Nc3ccccn3)C1=O)C2(C)C (stereo not drawn)', 'SK-MEL-5', 'label 0'),
  ('COc1ccc(C2c3cc(OC)c(OC)cc3C(Cc3ccc([N+](=O)[O-])cc3)C2c2ccc([N+](=O)[O-])cc2)cc1OC (stereo not drawn)', 'SK-MEL-5', 'label 0'),
  ('N#Cc1ccc(OCCSCCCCCCCCCCSCCOc2ccc(C#N)cc2)cc1', 'SK-MEL-5', 'label 0'),
  ('CC1=NN(C(=O)c2ccc(Cl)cc2)C(=O)/C1=C/c1ccccc1O', 'SK-MEL-5', 'label 0'),
  ('CC[C@@]1(O)C(=O)OCc2c1cc1n(c2=O)Cc2c-1nc1ccccc1c2/C=N/c1ccccc1N[C@@H]1c2cc3c(cc2[C@@H](c2cc(OC)c(O)c(OC)c2)[C@H]2C(=O)OC[C@@H]21)OCO3', 'SK-MEL-5', 'label 1'),
  ('O=C(CCO)OCCCCCC/C=C\CCCCCC/C=C\CCCCCCCCOC(=O)CCO', 'SK-MEL-5', 'label 0');
